Test system: recombinant NL4-3 virus (Renilla luciferase in nef, Gag P373S)
Assay: HIV Cell Culture Assay (luciferase reporter virus in MT-2 cells)
Type: cell-based
Settings: NL43, read-out: EC50 Group
pEC50: −log10 of the molar value.
Provide the reported pEC50 of each item.

Using the record for CC(C)[C@@H]1CC[C@]2(C(=O)NCCN(C)C)CC[C@]3(C)[C@H](CC[C@@H]4[C@@]5(C)CC[C@H](c6ccc(C(=O)O)cc6)C(C)(C)[C@@H]5CC[C@]43C)[C@@H]12 , report its pEC50. > 7.00

Consider next the compound C=C(C)[C@@H]1CC[C@]2(C(=O)NCC(=O)O)CC[C@]3(C)[C@H](CC[C@@H]4[C@@]5(C)CC=C(c6ccc(C(=O)O)cc6)C(C)(C)[C@@H]5CC[C@]43C)[C@@H]12 in the same way. < 7.00

Consider next the compound C=C(C)[C@@H]1CC[C@]2(C(=O)NCC(c3cccnc3)N(C)C)CC[C@]3(C)[C@H](CC[C@@H]4[C@@]5(C)CC=C(c6ccc(C(=O)O)cc6)C(C)(C)[C@@H]5CC[C@]43C)[C@@H]12 (stereo partly shown) in the same way. > 7.00

Consider next the compound C=C(C)[C@@H]1CC[C@]2(C(=O)N3CCCC3C(=O)O)CC[C@]3(C)[C@H](CC[C@@H]4[C@@]5(C)CC=C(c6ccc(C(=O)O)cc6)C(C)(C)[C@@H]5CC[C@]43C)[C@@H]12 (stereo partly shown) in the same way. > 7.00

----------
Test system: recombinant NL4-3 virus (Renilla luciferase in nef, Gag P373S)
Experiment: HIV Cell Culture Assay (luciferase reporter virus in MT-2 cells)
Format: cell-based
Details: NL43, read-out: EC50 Group
readout: EC50

API: value(readout= EC50, system= recombinant NL4-3 virus (Renilla luciferase in nef, Gag P373S), query= C=C(C)[C@@H]1CC[C@]2(C(=O)NCCN3CCS(=O)(=O)CC3)CC[C@]3(C)[C@H](CC[C@@H]4[C@@]5(C)CC=C(c6ccc(C(=O)O)cc6)C(C)(C)[C@@H]5CC[C@]43C)[C@@H]12 [Example 106] ) < 100 nM

Consider next the compound C=C(C)[C@@H]1CC[C@]2(C(=O)NCc3ccccn3)CC[C@]3(C)[C@H](CC[C@@H]4[C@@]5(C)CC=C(c6ccc(C(=O)O)cc6)C(C)(C)[C@@H]5CC[C@]43C)[C@@H]12 [Example 2] in the same way. < 100 nM

----------
Provide the reported pEC50 of each item.
Test system: recombinant NL4-3 virus (Renilla luciferase in nef, Gag P373S)
Assay: HIV Cell Culture Assay (luciferase reporter virus in MT-2 cells)
Assay type: cell-based
Settings: NL43, read-out: EC50 Group
pEC50: −log10 of the molar value.

Using the record for C=C(C)[C@@H]1CC[C@]2(C(=O)N[C@@H](C)CN(C)C)CC[C@]3(C)[C@H](CC[C@@H]4[C@@]5(C)CC=C(c6ccc(C(=O)O)cc6)C(C)(C)[C@@H]5CC[C@]43C)[C@@H]12 [Example 68] , report its pEC50. > 7.00

Consider next the compound C=C(C)[C@@H]1CC[C@]2(C(=O)NCCN(CCC)CCC(=O)O)CC[C@]3(C)[C@H](CC[C@@H]4[C@@]5(C)CC=C(c6ccc(C(=O)O)cc6)C(C)(C)[C@@H]5CC[C@]43C)[C@@H]12 [Example 93] in the same way. > 7.00

----------
Provide the reported EC50 of each item.
Tested on: recombinant NL4-3 virus (Renilla luciferase in nef, Gag P373S)
Test: HIV Cell Culture Assay (luciferase reporter virus in MT-2 cells)
Assay type: cell-based
Conditions: NL43, read-out: EC50 Group

Using the record for C=C(C)[C@@H]1CC[C@]2(C(=O)NCCc3ccc(OC)cc3)CC[C@]3(C)[C@H](CC[C@@H]4[C@@]5(C)CC=C(c6ccc(C(=O)O)cc6)C(C)(C)[C@@H]5CC[C@]43C)[C@@H]12 , report its EC50. < 100 nM

Consider next the molecule C=C(C)[C@@H]1CC[C@]2(C(=O)NCCCn3ccnc3)CC[C@]3(C)[C@H](CC[C@@H]4[C@@]5(C)CC=C(c6ccc(C(=O)O)cc6)C(C)(C)[C@@H]5CC[C@]43C)[C@@H]12 in the same way. < 100 nM

Consider next the molecule C=C(C)[C@@H]1CC[C@]2(C(=O)NCCCN3CCS(=O)(=O)CC3)CC[C@]3(C)[C@H](CC[C@@H]4[C@@]5(C)CC=C(c6ccc(C(=O)O)cc6F)C(C)(C)[C@@H]5CC[C@]43C)[C@@H]12 in the same way. < 100 nM

Consider next the molecule C=C(C)[C@@H]1CC[C@]2(C(=O)NCCN3CCN(C(=O)OC(C)(C)C)CC3)CC[C@]3(C)[C@H](CC[C@@H]4[C@@]5(C)CC=C(c6ccc(C(=O)O)cc6)C(C)(C)[C@@H]5CC[C@]43C)[C@@H]12 in the same way. < 100 nM

Consider next the molecule C=C(C)[C@@H]1CC[C@]2(C(=O)NCCC(=O)O)CC[C@]3(C)[C@H](CC[C@@H]4[C@@]5(C)CC=C(c6ccc(C(=O)O)cc6)C(C)(C)[C@@H]5CC[C@]43C)[C@@H]12 in the same way. < 100 nM

Consider next the molecule C=C(C)[C@@H]1CC[C@]2(C(=O)NCCN(CCC)CC(=O)O)CC[C@]3(C)[C@H](CC[C@@H]4[C@@]5(C)CC=C(c6ccc(C(=O)O)cc6)C(C)(C)[C@@H]5CC[C@]43C)[C@@H]12 in the same way. < 100 nM

Consider next the molecule CC(C)[C@@H]1CC[C@]2(C(=O)NCCN(C)C)CC[C@]3(C)[C@H](CC[C@@H]4[C@@]5(C)CC=C(c6ccc(C(=O)O)cc6)C(C)(C)[C@@H]5CC[C@]43C)[C@@H]12 in the same way. < 100 nM

Consider next the molecule C=CNC(=O)[C@]12CC[C@@H](C(=C)C)[C@@H]1[C@H]1CC[C@@H]3[C@@]4(C)CC=C(c5ccc(C(=O)O)cc5)C(C)(C)[C@@H]4CC[C@@]3(C)[C@]1(C)CC2 in the same way. < 100 nM

Consider next the molecule C=C(C)[C@@H]1CC[C@]2(C(=O)NCc3nc4ccccc4s3)CC[C@]3(C)[C@H](CC[C@@H]4[C@@]5(C)CC=C(c6ccc(C(=O)O)cc6)C(C)(C)[C@@H]5CC[C@]43C)[C@@H]12 in the same way. < 100 nM

----------
Tested on: recombinant NL4-3 virus (Renilla luciferase in nef, Gag P373S)
Assay: HIV Cell Culture Assay (luciferase reporter virus in MT-2 cells)
Format: cell-based
Settings: NL43, read-out: EC50 Group
Method: MT-2 cells and 293T cells were obtained from the NIH AIDS Research and Reference Reagent Program. […] Luciferase was quantitated using the Dual Luciferase kit from Promega (Madison, Wis.), with modifications to the manufacturer's protocol. […] Fifty (50) μL of the mixture was added to each aspirated well on assay plates and luciferase activity was measured immediately on a Wallac TriLux (Perkin-Elmer). […]
pEC50: −log10 of the molar value.
Provide the reported pEC50 of each item.

Using the record for C=C(C)[C@@H]1CC[C@]2(C(=O)NCCN(CCC(=O)O)CCC(=O)O)CC[C@]3(C)[C@H](CC[C@@H]4[C@@]5(C)CC=C(c6ccc(C(=O)O)cc6)C(C)(C)[C@@H]5CC[C@]43C)[C@@H]12 , report its pEC50. < 7.00

Consider next the molecule C=C(C)[C@@H]1CC[C@]2(C(=O)NCCCN3CCS(=O)(=O)CC3)CC[C@]3(C)[C@H](CC[C@@H]4[C@@]5(C)CC=C(c6cc(F)c(C(=O)O)c(F)c6)C(C)(C)[C@@H]5CC[C@]43C)[C@@H]12 in the same way. > 7.00

----------
Provide the reported pEC50 of each item.
Tested on: recombinant NL4-3 virus (Renilla luciferase in nef, Gag P373S)
Assay: HIV Cell Culture Assay (luciferase reporter virus in MT-2 cells)
Format: cell-based
Details: NL43, read-out: EC50 Group
pEC50: −log10 of the molar value. Structures can show the parent of a compound that is named as a salt.

Using the record for C=C(C)[C@@H]1CC[C@]2(C(=O)N3CCN(CCO)CC3)CC[C@]3(C)[C@H](CC[C@@H]4[C@@]5(C)CC=C(c6ccc(C(=O)O)cc6)C(C)(C)[C@@H]5CC[C@]43C)[C@@H]12 [Example 13, TFA] , report its pEC50. > 7.00

Consider next the molecule C=C(C)[C@@H]1CC[C@]2(C(=O)Nc3ncc(C)s3)CC[C@]3(C)[C@H](CC[C@@H]4[C@@]5(C)CC=C(c6ccc(C(=O)O)cc6)C(C)(C)[C@@H]5CC[C@]43C)[C@@H]12 [Example 48] in the same way. > 7.00

Consider next the molecule C=C(C)[C@@H]1CC[C@]2(C(=O)NCCN3CCCC3=O)CC[C@]3(C)[C@H](CC[C@@H]4[C@@]5(C)CC=C(c6ccc(C(=O)O)cc6)C(C)(C)[C@@H]5CC[C@]43C)[C@@H]12 [Example 46] in the same way. > 7.00

Consider next the molecule C=C(C)[C@@H]1CC[C@]2(C(=O)NCCC(=O)N3CCCC3C(=O)O)CC[C@]3(C)[C@H](CC[C@@H]4[C@@]5(C)CC=C(c6ccc(C(=O)O)cc6)C(C)(C)[C@@H]5CC[C@]43C)[C@@H]12 (stereo partly shown) [Example 127] in the same way. > 7.00

The measurements presented in this section are drawn from patent US8802661B2.
